# system-tested: KRAS_G12D and cRAF (Homo sapiens, UniProt P01116, G12D)
# run-description: Inhibition of KRAS_G12D/cRAF binding (Cisbio binding kit, 665/615 ratio), Effect Embodiment B
# setup-conditions: read-out: GTP-KRAS-G12D:CRAF IC50
Counter-ions that a name gives are not always drawn.
measured-parameter: IC50 (nM)

Observe how each entry below is paired with its result.
Record C[C@H](COc1nc(N2CC3CCC(C2)N3)c2cc(Cl)c(-c3cc(O)cc4ccccc34)c(F)c2n1)CN1C[C@@H](C)O[C@@H](C)C1 (single isomer, unassigned) , field IC50: 134

Field IC50 (entry C[C@@H](COc1nc(N2CC3CCC(C2)N3)c2cc(Cl)c(-c3cc(O)cc4ccccc34)c(F)c2n1)CN1C[C@@H](C)O[C@@H](C)C1 (single isomer, unassigned) ) reads 13

Item: C#Cc1c(F)ccc2cccc(-c3c(F)cc4c(N5CC6CCC(C5)N6)nc(OC[C@@]56CCCN5C[C@H](F)C6)nc4c3F)c12 (single isomer, unassigned) [Compound 279a] | IC50: 10.9

Quick note, IC50 for Oc1cc(-c2c(Cl)cc3c(N4C[C@H]5CC[C@@H](C4)N5)nc(OCCCN4C[C@@H]5C[C@H]4CO5)nc3c2F)c2ccccc2c1 (single isomer, unassigned) [Compound 165, dihydrochloride] landed at 85.4

IC50 measured on CCCCN(C)CCCOc1nc(N2CC3CCC(C2)N3)c2cc(Cl)c(-c3cc(O)cc4ccccc34)c(F)c2n1 (single isomer, unassigned) [Compound 113, hydrochloride] = 130

(I) Oc1cc(-c2c(Cl)cc3c(N4CC5CCC(C4)N5)nc(OCC45CCN(CC4)CC5)nc3c2F)c2ccccc2c1 (single isomer, unassigned)
(II) C[C@@H](COc1nc(N2CC3CCC(C2)N3)c2cc(Cl)c(-c3cc(O)cc4ccccc34)c(F)c2n1)CN1CCOC[C@H]1C (single isomer, unassigned)
Q: I need your help: which of the pair I , II has higher IC50? Indicate which entry you chose by stating its label.
Ans: I
(I: 157 nM, II: 18.3 nM)

(P) Oc1cc(-c2c(Cl)cc3c(N4CC5CCC(C4)N5)nc(OCCCN4CCC5(CCOCC5)C4)nc3c2F)c2ccccc2c1 (single isomer, unassigned)
(Q) CN(C)CC(C)(C)COc1nc(N2CC3CCC(C2)N3)c2cc(Cl)c(-c3cc(O)cc4ccccc34)c(F)c2n1 (single isomer, unassigned) [Compound 118, dihydrochloride]
(R) C[C@@H](COc1nc(N2CC3CCC(C2)N3)c2cc(Cl)c(-c3cc(B(O)O)cc4ccccc34)c(F)c2n1)CN1C2CCC1COC2 (single isomer, unassigned)
Q: Rank by IC50 (largest to smallest). Answer by naming the labels in the order asked.
Ans: R, P, Q

(1) Oc1cc(-c2c(Cl)cc3c(N4CC5CCC(C4)N5)nc(OCCCN4CC5(COC5)C4)nc3c2F)c2ccccc2c1 (single isomer, unassigned)
(2) CN1CC2(CC2)C[C@H]1COc1nc(N2CC3CCC(C2)N3)c2cnc(-c3cc(O)cc4ccccc34)c(F)c2n1
(3) CO[C@@H](COc1nc(N2CC3CCC(C2)N3)c2cc(Cl)c(-c3cc(O)cc4ccccc34)c(F)c2n1)CN1CCCC[C@H]1C (single isomer, unassigned)
Q: Which order do these items take when sorted by rising IC50? List them. Use the labels to give the ranking in the order requested.
Ans: 2, 1, 3
(2: 10.7 nM, 1: 110 nM, 3: 746 nM)

###

# system-tested: KRAS_WT and SOS1 (Homo sapiens)
# Construct: purchased
# Sequence (P01116 1-188 isoform P01116-2): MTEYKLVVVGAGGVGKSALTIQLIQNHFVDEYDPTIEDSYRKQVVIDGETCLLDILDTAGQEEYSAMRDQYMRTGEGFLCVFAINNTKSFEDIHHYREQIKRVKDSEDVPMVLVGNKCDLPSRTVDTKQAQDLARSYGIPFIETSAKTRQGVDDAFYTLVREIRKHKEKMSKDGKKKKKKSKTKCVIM
# run-description: Inhibition of KRAS_WT/SOS1 binding (Cisbio binding kit, 665/615 ratio), Effect Embodiment C
# setup-conditions: read-out: GTP-KRAS-WT:SOS1 IC50
measured-parameter: IC50 (µM)

CO[C@@H](COc1nc(N2CC3CCC(C2)N3)c2cc(Cl)c(-c3cc(O)cc4ccccc34)c(F)c2n1)CN1C2CCC1COC2 (single isomer, unassigned) [Compound 182] on KRAS_WT and SOS1 (Homo sapiens) gives IC50 = 3.4

(1) CN1CCC[C@H]1COc1nc(N2CC3CCC(C2)N3)c2cc(Cl)c(-c3c(F)c(O)cc4ccccc34)c(F)c2n1 (single isomer, unassigned) [Compound 195b]
(2) C[C@@H]1COC[C@H](C)N1CCCOc1nc(N2CC3CCC(C2)N3)c2cc(Cl)c(-c3cc(O)cc4ccccc34)c(F)c2n1 (single isomer, unassigned) [Compound 175]
(3) CN1CCC2(C1)CN(c1nc(N3CC4CCC(C3)N4)c3cc(Cl)c(-c4cc(O)cc5ccccc45)c(F)c3n1)C2 (single isomer, unassigned) [Compound 61a]
(4) Oc1cc(-c2c(Cl)cc3c(N4CC5CCC(C4)N5)nc(OCCCN4CC5CCC4CO5)nc3c2F)c2ccccc2c1 (single isomer, unassigned) [Compound 187a]
Q: # rank by IC50, ascending (min first) Return the labels ranked in the requested order, please.
Ans: 4, 2, 1, 3

###

# system-tested: KRAS-G12D and SOS1 (Homo sapiens, UniProt P01116, G12D)
# Sequence (P01116 1-188 isoform P01116-2 G12D): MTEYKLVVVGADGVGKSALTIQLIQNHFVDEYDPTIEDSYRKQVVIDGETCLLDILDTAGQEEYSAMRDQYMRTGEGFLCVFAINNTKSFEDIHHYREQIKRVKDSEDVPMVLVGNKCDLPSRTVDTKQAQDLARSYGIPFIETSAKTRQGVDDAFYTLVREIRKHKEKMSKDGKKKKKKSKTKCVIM
# run-description: Inhibition of KRAS-G12D/SOS1 binding (Cisbio binding kit, 665/615 ratio), Effect Embodiment A
# setup-conditions: read-out: GTP-KRAS-G12D:SOS1 IC50
pIC50: −log10 of the molar value.
measured-parameter: pIC50

Sure, the documented pIC50 for CC1OCCN(CCCOc2nc(N3CC4CCC(C3)N4)c3cc(Cl)c(-c4cc(O)cc5ccccc45)c(F)c3n2)C1C (single isomer, unassigned) [Compound 265c] is 7.30

(A) CC(F)(COc1nc(N2CC3CCC(C2)N3)c2cc(Cl)c(-c3cc(O)cc4ccccc34)c(F)c2n1)CN1C2CCC1COC2 (single isomer, unassigned) [Compound 208a]
(B) CN(CCCCN1CCN(CCCCN)CC1)CCCOc1nc(N2CC3CCC(C2)N3)c2cc(Cl)c(-c3cc(O)cc4ccccc34)c(F)c2n1 (single isomer, unassigned)
Q: Could you determine which record has the numerically smaller pIC50? Candidates: A and B Provide the label of your selected option as the answer.
Ans: A
(A: 7.37, B: 7.65)

###

# system-tested: KRAS_G12D and cRAF (Homo sapiens, UniProt P01116, G12D)
# run-description: Inhibition of KRAS_G12D/cRAF binding (Cisbio binding kit, 665/615 ratio), Effect Embodiment B
# setup-conditions: read-out: GTP-KRAS-G12D:CRAF IC50
Where a name gives a salt, the structure may show the parent alone.
measured-parameter: IC50 (nM)

Note to self: IC50 recorded for CC(C)N1CC2CCC(C1)N2CCCOc1nc(N2CC3CCC(C2)N3)c2cc(Cl)c(-c3cc(O)cc4ccccc34)c(F)c2n1 (single isomer, unassigned) was 260

(1) CN1CCN(c2nc(N3CC4CCC(C3)N4)c3cc(Cl)c(-c4cc(O)cc5ccccc45)c(F)c3n2)CC1 (single isomer, unassigned) [Compound 52a]
(2) Oc1cc(-c2c(Cl)cc3c(N4CC5CCC(C4)N5)nc(OCCN4CCCCC4)nc3c2F)c2ccccc2c1 (single isomer, unassigned) [Compound 114, dihydrochloride]
Q: Consider 1 and 2 . Which of these has its IC50 at a higher number? Please respond with the label that marks your chosen entry.
Ans: 1
(1: 9210 nM, 2: 100 nM)

###

# system-tested: KRAS-G12D and SOS1 (Homo sapiens, UniProt P01116, G12D)
# run-description: Inhibition of KRAS-G12D/SOS1 binding (Cisbio binding kit, 665/615 ratio), Effect Embodiment A
# setup-conditions: read-out: GTP-KRAS-G12D:SOS1 IC50
# Protocol: Similarly, the first dilution point of the compound to be tested was its storage solution, and the solution was 3-fold diluted, with 11+0 points of dilution. Echo was used to transfer 0.2 μL gradient diluted solution of the compounds into a 384-well plate, with 2 duplicated wells for each compound, and the final concentration of DMSO was 1%. The solution was centrifuged for 1 min at 1000 rpm/min. IC50 of the compounds was fitted by Graphpad Prism 8 nonlinear regression equation: […]
pIC50: −log10 of the molar value. Counter-ions that a name gives are not always drawn.
measured-parameter: pIC50

According to the records, this molecule Oc1cc(-c2c(Cl)cc3c(N4CC5CCC(C4)N5)nc(OCCCN4CCC5(CC4)COC5)nc3c2F)c2ccccc2c1 (single isomer, unassigned) displays pIC50 of 7.61

Looking up CN1CCC[C@H]1COc1nc(N2C[C@H]3C=C[C@@H](C2)N3)c2cnc(-c3cc(O)cc4ccccc34)c(F)c2n1 [Compound 159, diformate] , I see its pIC50 listed as 7.51

Query CN(C)CCCCc1nc(N2CC3CCC(C2)N3)c2cc(Cl)c(-c3cc(O)cc4ccccc34)c(F)c2n1 (single isomer, unassigned) [Compound 154a, dihydrochloride] yields pIC50 of 6.69

The reported value for Oc1cc(Cl)c(C2CC2)c(-c2c(Cl)cc3c(N4CC5CCC(C4)N5)nc(OC[C@@]45CCCN4C[C@H](F)C5)nc3c2F)c1 (single isomer, unassigned) [Compound 198b] in terms of pIC50 is 7.27

The reported value for CN1C[C@H]2C[C@H]2[C@H]1COc1nc(N2CC3CCC(C2)N3)c2cnc(-c3cc(O)cc4ccccc34)c(F)c2n1 [Compound 141, dihydrochloride] in terms of pIC50 is 7.06

Lab book: pIC50 of Oc1cc(-c2c(Cl)cc3c(N4CC5CCC(C4)N5)nc(N4CCNCC4)nc3c2F)c2ccccc2c1 (single isomer, unassigned) [Compound 57b] noted as 6.38

(A) C#Cc1c(F)ccc2cccc(-c3c(F)cc4c(N5CC6CCC(C5)N6)nc(OC[C@@]56CCCN5C[C@H](F)C6)nc4c3F)c12 (single isomer, unassigned) [Compound 279a]
(B) C[C@@H](COc1nc(N2CC3CCC(C2)N3)c2cc(Cl)c(-c3cc(O)cc4ccccc34)c(F)c2n1)CN1C[C@@H](C)O[C@H](C)C1 (single isomer, unassigned)
(C) CN1C[C@H](F)C[C@H]1COc1nc(N2CC3CCC(C2)N3)c2cnc(-c3cc(O)cc4ccccc34)c(F)c2n1
Q: Please list these in order of increasing pIC50. Thank you! Dear reader, please state the labels in the requested order.
Ans: B, C, A
